# credit: ChEMBL document CHEMBL1697781

Provide the reported Alkaline Phosphatase Increase - Index Value of each item.
Tested on: Hepatotoxicity
Experiment: FDA HLAED, alkaline phosphatase increase
Conditions: human
Give only the figure.

Hepatotoxicity / Alkaline Phosphatase Increase - Index Value / CC(CCc1ccc(O)cc1)NCCc1ccc(O)c(O)c1 (stereo not drawn) : value?
0

Now the same for Cn1cc([S+](C)[O-])c(=O)c2ccc(F)cc21 (stereo not drawn)
14.1

Now the same for `CC(=O)O[C@H]1C(=O)[C@@]2(C)[C@H]([C@H](OC(=O)c3ccccc3)[C@]3(O)C[C@H](OC(=O)[C@H](O)[C@@H](NC(=O)c4ccccc4)c4ccccc4)C(C)=C1C3(C)C)[C@]1(OC(C)=O)CO[C@@H]1C[C@@H]2O`
3.7

Now the same for CNCC(O)c1ccc(OC(=O)C(C)(C)C)c(OC(=O)C(C)(C)C)c1 (stereo not drawn)
0

Now the same for `Clc1ccc2c(c1)C(c1ccccc1)=NCc1nncn1-2`
0

Now the same for `CO/N=C(\C(=O)N[C@@H]1C(=O)N2C(C(=O)[O-])=C(C[N+]3(C)CCCC3)CS[C@H]12)c1csc(N)n1`
1

Now the same for `CC(=O)CCCCn1c(=O)c2c(ncn2C)n(C)c1=O`
1

Now the same for CN1CCN2c3ncccc3Cc3ccccc3C2C1 (stereo not drawn)
0.9

---

Tested on: Hepatotoxicity
Assay: FDA HLAED, lactate dehydrogenase (LDH) increase
Conditions: human
assayMetric: LDH Increase - Number of Reports

Solved entries (count: 5):
>  <molecule>
Clc1ccccc1CN1CCc2sccc2C1

>  <LDH Increase - Number of Reports>
< 4

$$$$
>  <molecule>
NC(=O)OCC(COC(N)=O)c1ccccc1 [FELBAMATE]

>  <LDH Increase - Number of Reports>
>= 4

$$$$
>  <molecule>
C=C1/C(=C\C=C2/CCC[C@]3(C)[C@@H]([C@H](C)/C=C/[C@@H](O)C4CC4)CC[C@@H]23)C[C@@H](O)C[C@@H]1O

>  <LDH Increase - Number of Reports>
< 4

$$$$
>  <molecule>
CCCCCCC(C)(C)c1cc(O)c2c(c1)OC(C)(C)C1CCC(=O)CC21 (stereo not drawn)

>  <LDH Increase - Number of Reports>
< 4

$$$$
>  <molecule>
Nc1ccn(C[C@@H](CO)OCP(=O)(O)O)c(=O)n1.O.O

>  <LDH Increase - Number of Reports>
< 4

$$$$

Quick one: LDH Increase - Number of Reports for `CCCN1CCCC[C@H]1C(=O)Nc1c(C)cccc1C` ?
< 4

Now the same for CCCCC(=O)O[C@H]1CC[C@H]2[C@@H]3CCc4cc(O)ccc4[C@H]3CC[C@]12C [ESTRADIOL VALERATE]
>= 4

Now the same for `C=C1c2c(Cl)ccc(O)c2C(=O)C2=C(O)[C@]3(O)C(=O)C(C(N)=O)=C(O)[C@@H](N(C)C)[C@@H]3[C@@H](O)[C@H]12`
< 4

---

Test system: Hepatotoxicity
Assay: FDA HLAED, serum glutamic oxaloacetic transaminase (SGOT) increase
Conditions: human
assayMetric: SGOT Increase - Activity Score

Solved entries (count: 5):
>  <compound>
C=CCN1C[C@H](C(=O)N(CCCN(C)C)C(=O)NCC)C[C@@H]2c3cccc4[nH]cc(c34)C[C@H]21 [CABERGOLINE]

>  <recordedMeasurement>
Inactive

$$$$
>  <compound>
O=C(NCC1CCCCN1)c1cc(OCC(F)(F)F)ccc1OCC(F)(F)F (centres undefined) [FLECAINIDE]

>  <recordedMeasurement>
Active

$$$$
>  <compound>
COc1cc(NCc2ccc3nc(N)nc(N)c3c2C)cc(OC)c1OC [TRIMETREXATE]

>  <recordedMeasurement>
Active

$$$$
>  <compound>
CC(NC(C)(C)C)C(=O)c1cccc(Cl)c1 (centres undefined) [BUPROPION]

>  <recordedMeasurement>
Inactive

$$$$
>  <compound>
FC(F)(F)C(Cl)Br (centres undefined) [HALOTHANE]

>  <recordedMeasurement>
Active

$$$$

Hepatotoxicity / SGOT Increase - Activity Score / CC(S)C(=O)NCC(=O)O (centres undefined) [TIOPRONIN] : value?
Inactive

Now the same for COC(=O)C1=C(C)NC(C)=C(C(=O)OC)C1c1ccccc1[N+](=O)[O-] [NIFEDIPINE]
Inactive

Now the same for CCCCCCC(=O)O[C@H]1CC[C@H]2[C@@H]3CCC4=CC(=O)CC[C@]4(C)[C@H]3CC[C@]12C [TESTOSTERONE ENANTHATE]
Inactive

Now the same for COc1ccc2cc(CCC(C)=O)ccc2c1 [NABUMETONE]
Inactive

---

Tested on: Hepatotoxicity
Assay: FDA HLAED, alkaline phosphatase increase
Conditions: human
assayMetric: Alkaline Phosphatase Increase - Index Value
Give only the figure.

Quick one: Alkaline Phosphatase Increase - Index Value for CC1(C)O[C@@H]2[C@@H](CO[C@@]3(COS(N)(=O)=O)OC(C)(C)O[C@@H]23)O1 [TOPIRAMATE] ?
3.5

Now the same for NC(N)=Nc1nc(CSCCC(N)=NS(N)(=O)=O)cs1 [FAMOTIDINE]
0.8

Now the same for COCCOC(=O)C1=C(C)NC(C)=C(C(=O)OC(C)C)C1c1cccc([N+](=O)[O-])c1 (stereo not drawn) [NIMODIPINE]
17.6

Now the same for C[C@H](O)C(=O)Nc1c(I)c(C(=O)NC(CO)CO)c(I)c(C(=O)NC(CO)CO)c1I [IOPAMIDOL]
0

Now the same for CCCCCCC(=O)O[C@H]1CC[C@H]2[C@@H]3CCC4=CC(=O)CC[C@]4(C)[C@H]3CC[C@]12C [TESTOSTERONE ENANTHATE]
0

Now the same for Fc1ccc([C@@H]2CCNC[C@H]2COc2ccc3c(c2)OCO3)cc1 [PAROXETINE]
0.7

Now the same for CCOC(=O)C1=C(COCCN)NC(C)=C(C(=O)OC)C1c1ccccc1Cl (stereo not drawn) [AMLODIPINE]
1

Now the same for COCC1=C(C(=O)O)N2C(=O)[C@@H](NC(=O)/C(=N\OC)c3csc(N)n3)[C@H]2SC1 [CEFPODOXIME]
1

---

Test system: Hepatotoxicity
Assay: FDA HLAED, gamma-glutamyl transferase (GGT) increase
Conditions: human
assayMetric: GGT Increase - Index Value
Give only the figure.

Quick one: GGT Increase - Index Value for C[C@]12CC[C@@H]3c4ccc(OC(=O)c5ccccc5)cc4CC[C@H]3[C@@H]1CC[C@@H]2O [ESTRADIOL BENZOATE] ?
0.3

Now the same for COc1cc(N)c(Cl)cc1C(=O)NC1CCN(CCCOc2ccc(F)cc2)CC1OC (stereo not drawn) [CISAPRIDE]
0.2

Now the same for `CCCc1c2oc(C(=O)O)cc(=O)c2cc2c(=O)cc(C(=O)O)n(CC)c12`
0

Now the same for COc1cccc(C2(O)CCCCC2CN(C)C)c1 (stereo not drawn)
0.2

Now the same for COCCOC(=O)C1=C(C)NC(C)=C(C(=O)OC(C)C)C1c1cccc([N+](=O)[O-])c1 (stereo not drawn)
17.6

Now the same for `Cc1cc(C2CCCCC2)n(O)c(=O)c1`
0

Now the same for O=C(c1ccccc1)c1ccc2n1CCC2C(=O)O (stereo not drawn)
0.5

Now the same for `Clc1ccc2c(c1)C(c1ccccc1)=NCc1nncn1-2`
0.8

Now the same for `C[N+](C)(C)CCO.Cn1c(=O)c2[n-]cnc2n(C)c1=O`
0

Now the same for CCOC(=O)C1=C(COCCN)NC(C)=C(C(=O)OC)C1c1ccccc1Cl (stereo not drawn)
0.8

Now the same for CCCNCC(O)COc1ccccc1C(=O)CCc1ccccc1 (stereo not drawn)
2.9

Now the same for `O=C(O)c1cn(C2CC2)c2cc(N3CCNCC3)c(F)cc2c1=O`
0.8

Now the same for `CN(Cc1ccc(C(C)(C)C)cc1)Cc1cccc2ccccc12`
0

Now the same for C=CC[N+]1([C@H]2C[C@H]3[C@@H]4CC[C@H]5C[C@H](O)[C@@H](N6CCOCC6)C[C@]5(C)[C@H]4CC[C@]3(C)[C@H]2OC(C)=O)CCCC1.[Br-] [ROCURONIUM BROMIDE]
0

Now the same for `CCOC(=O)[C@H](CCc1ccccc1)N[C@@H](C)C(=O)N1Cc2ccccc2C[C@H]1C(=O)O`
1.4

Now the same for `O=C(O)Cc1ccccc1Nc1c(Cl)cccc1Cl`
3.8

Now the same for `C[C@H](O)C(=O)Nc1c(I)c(C(=O)NC(CO)CO)c(I)c(C(=O)NC(CO)CO)c1I`
0

Now the same for `CCOC(=O)[C@H](CCc1ccccc1)N[C@@H](C)C(=O)N1[C@H](C(=O)O)C[C@H]2CCCC[C@@H]21`
0

Now the same for C[C@]12CC[C@H]3[C@@H](CCC4=CC(=O)CC[C@@]43C)[C@@H]1CC[C@@H]2OC(=O)Cc1ccccc1 [TESTOSTERONE PHENYLACETATE]
4.8

Now the same for `CC(C)/N=c1\cc2n(-c3ccc(Cl)cc3)c3ccccc3nc-2cc1Nc1ccc(Cl)cc1`
51.3

Now the same for CCCCCCCN(CC)CCCC(O)c1ccc(NS(C)(=O)=O)cc1 (stereo not drawn) [IBUTILIDE]
0

Now the same for `OC[C@H]1O[C@@H](n2cnc3c2NC=NC[C@H]3O)C[C@@H]1O`
0

Now the same for CC(C)C(=O)Nc1ccc([N+](=O)[O-])c(C(F)(F)F)c1 [FLUTAMIDE]
6.7

Now the same for `CC[C@H]1OC(=O)[C@H](C)[C@@H](O[C@H]2C[C@@](C)(OC)[C@@H](O)[C@H](C)O2)[C@H](C)[C@@H](O[C@@H]2O[C@H](C)C[C@H](N(C)C)[C@H]2O)[C@](C)(OC)C[C@@H](C)C(=O)[C@H](C)[C@@H](O)[C@]1(C)O`
1.5

Now the same for `CN(C)c1nc(N(C)C)nc(N(C)C)n1`
0

Now the same for CC(=O)N1CCN(c2ccc(OCC3COC(Cn4ccnc4)(c4ccc(Cl)cc4Cl)O3)cc2)CC1 (stereo not drawn)
0

Now the same for CC(C)NCC(O)COc1ccc(COCCOC(C)C)cc1 (stereo not drawn)
12.3

Now the same for `CC=CC1=C(C(=O)O)N2C(=O)[C@@H](NC(=O)[C@H](N)c3ccc(O)cc3)[C@H]2SC1`
0.1

Now the same for `C[C@@]12CCCCC[C@@H](Cc3ccc(O)cc31)[C@@H]2N`
0

Now the same for `Cc1cc2c(s1)Nc1ccccc1N=C2N1CCN(C)CC1`
9.1

Now the same for COC(=O)C1=C(C)NC(C)=C(C(=O)OCC(C)C)C1c1ccccc1[N+](=O)[O-] (stereo not drawn)
0

Now the same for CC(C)(C)NCC(O)COc1cccc2c1CC(O)C(O)C2 (stereo not drawn)
0

Now the same for `C[C@]12CC[C@@H]3c4ccc(O)cc4CC[C@H]3[C@@H]1CC[C@@H]2O`
0.3
